assay: NCI Yeast Anticancer Drug Screen. Data for the sgs1 mgt1 strain (AID 161);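 also: 0% = growth of cultures given vehicle only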; conditions: S. cerevisiae sgs1 mgt1 strain, at 50.0 µM, active compounds read high
This is part of a sample that, as a whole, favours compounds with a hit. Of some 79,000 tested, about 15% had one in any assay.
For each entry below, report its growth inhibition value.
Give the number; % is assumed, so skip it.

Give the value of growth inhibition reported for the following: CCN1CC2(C)CCC(OC)C34C5CC6CCC(O)(C5C(=O)O6)C(C(O)C23)C14 (stereo unspecified)
2

Give the value of growth inhibition reported for the following: "[Pt].c1ccc([PH+](c2ccccc2)c2ccccc2)cc1.c1ccc([PH+](c2ccccc2)c2ccccc2)cc1.c1ccc([PH+](c2ccccc2)c2ccccc2)cc1.c1ccc([PH+](c2ccccc2)c2ccccc2)cc1"
62.3

Give the value of growth inhibition reported for the following: "O=C(NC1CCCCC1)c1c(O)[nH]c(=S)[nH]c1=O"
14.8

Give the value of growth inhibition reported for the following: "Cc1ccc([NH-])cc1C.Cc1ccc([NH-])cc1C.[Cl][Pt+2][Cl]"
62.5

Give the value of growth inhibition reported for the following: ClC(OC(Cl)C(Cl)(Cl)Cl)C(Cl)(Cl)Cl (stereo unspecified)
30.9

Give the value of growth inhibition reported for the following: O=C(O)C1C(C(=O)O)C2(Cl)C(Cl)=C(Cl)C1(Cl)C2(Cl)Cl.[Cd] (stereo unspecified)
-0.2

Give the value of growth inhibition reported for the following: O=C(O)C1CC2c3ccccc3C1([N+](=O)[O-])c1ccccc12 (stereo unspecified)
31.1

Give the value of growth inhibition reported for the following: C=C(C)C(=O)OCC12CCC(C)=CC1OC1C(=O)C(OC(=O)C(=C)C)C2(C)C12CO2 (stereo unspecified)
-1.15

Give the value of growth inhibition reported for the following: [CH3][Sb]([CH3])[S]C1OC(CO)C(O)C(O)C1O (stereo unspecified)
29.9

Give the value of growth inhibition reported for the following: CN1CNC2C(=O)CCC2c2ccccc21 (stereo unspecified)
-21.3

Give the value of growth inhibition reported for the following: "COP(=O)(Cc1ccccc1)OC"
-0.95

The values you see were collected from PubChem BioAssay (NCI).
